- assay_system: 3-hydroxy-3-methylglutaryl-coenzyme A reductase (Rattus norvegicus)
- Sequence (P51639 whole entry): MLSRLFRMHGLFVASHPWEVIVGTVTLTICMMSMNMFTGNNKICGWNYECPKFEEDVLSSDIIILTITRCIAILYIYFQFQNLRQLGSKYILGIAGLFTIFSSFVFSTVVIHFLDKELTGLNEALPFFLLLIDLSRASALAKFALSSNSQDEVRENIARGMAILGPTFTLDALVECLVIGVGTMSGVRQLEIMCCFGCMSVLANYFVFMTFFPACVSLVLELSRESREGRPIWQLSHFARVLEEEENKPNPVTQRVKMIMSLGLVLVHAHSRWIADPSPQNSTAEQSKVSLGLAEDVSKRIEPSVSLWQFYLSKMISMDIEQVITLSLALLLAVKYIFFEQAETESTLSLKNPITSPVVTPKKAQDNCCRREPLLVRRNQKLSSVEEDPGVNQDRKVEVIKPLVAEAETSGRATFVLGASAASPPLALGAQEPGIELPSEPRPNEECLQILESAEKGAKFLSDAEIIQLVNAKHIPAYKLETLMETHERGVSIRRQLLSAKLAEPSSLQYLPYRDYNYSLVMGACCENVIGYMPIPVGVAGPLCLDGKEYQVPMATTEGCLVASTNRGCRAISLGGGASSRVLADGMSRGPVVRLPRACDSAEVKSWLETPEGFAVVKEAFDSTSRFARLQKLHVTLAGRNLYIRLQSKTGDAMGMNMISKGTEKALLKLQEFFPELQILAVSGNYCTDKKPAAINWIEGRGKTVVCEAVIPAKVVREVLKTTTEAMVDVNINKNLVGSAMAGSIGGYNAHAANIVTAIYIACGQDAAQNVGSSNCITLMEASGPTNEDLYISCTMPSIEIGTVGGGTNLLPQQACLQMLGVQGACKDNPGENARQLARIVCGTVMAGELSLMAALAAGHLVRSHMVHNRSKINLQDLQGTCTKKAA
- experiment_summary: In vitro inhibitory activity was measured against rat liver HMG-CoA reductase using [2-14C]-acetate incorporation
readout_name: IC50 (µM)
Hi! Could you send only the number? It should be in µM, unit omitted.

chem_smiles | units | IC50
Cn1nnnc1C(/C=C/[C@@H]1C[C@@H](O)CC(=O)O1)=C(c1ccc(F)cc1)c1ccc(F)cc1 | µM | 0.024

Please tell me the measured IC50 for CC[C@H](C)C(=O)O[C@H]1C[C@@H](C)C=C2C=C[C@H](C)[C@H](CC[C@@H]3C[C@@H](O)CC(=O)O3)[C@H]21 ; system: 3-hydroxy-3-methylglutaryl-coenzyme A reductase (Rattus norvegicus).
0.032
